Where these numbers come from: patent US20240425569A1

MEASUREMENT_TARGET: T1, EDIII-DV3 (E protein domain III of dengue virus serotype DV-3) (dengue virus serotype DV-3, UniProt P27915 571-678)
T1 construct: also called DENV-3; EDIII of DV-3
T1 sequence (P27915 571-678, tags left off): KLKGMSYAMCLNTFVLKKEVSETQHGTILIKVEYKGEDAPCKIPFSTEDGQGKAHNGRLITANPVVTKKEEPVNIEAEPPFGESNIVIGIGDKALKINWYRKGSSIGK
ASSAY_PROCEDURE: competition ELISA
Field: Kd. Provide a value for each of the binders that follow.
Please respond with the number in nM and leave the unit unwritten.

Task: Form field: reported Kd of antibody D118 (antibody, V domains shown) VH: QVQLVQSGAEVKKPGASVKVSCKASGWNIKDVYMSWVRQAPEQGLEWMGRIDPENGDTKYDPKLQGRVTMTADTSTNTAYMELRSLRSDDTAVYYCARGWEGFAYWGQGTLVTVSS VL: DIVMTQSPASLAVSLGERATISCRASENVDKYGNSFMHWYQQKPGQPPKLLIYRASELQWGVPDRFSGSGSGTDFTLTISSLQAEDVAVYYCQRSNEVPWTFGQGTKLEIK
Result: 9.07

Task: How about antibody D88 (antibody, V domains shown, also called mAb D88) VH: QVQLVQSGAEVKKPGASVKVSCKAGFNIKDVYMSWVRQAPEQGLEWMGRIDPENGDTKYDPKLQGRVTMTADTSTNTAYMELRSLRSDDTAVYYCARGWEGFAYWGQGTLVTVSS VL: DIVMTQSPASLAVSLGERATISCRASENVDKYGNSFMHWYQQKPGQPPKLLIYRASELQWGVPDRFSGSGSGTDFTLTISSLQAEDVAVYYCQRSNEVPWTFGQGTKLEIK ?
Result: 1.21

Task: How about antibody C98 (antibody, V domains shown) VH: QVQLVQSGAEVKKPGASVKVSCKASGFNIKDVYMSWVRQAPEQGLEWMGRIDPENGDTKYDPKLQGRVTMTADTSTNTAYMELRSLRSDDTAVYYCVRGWEGFAYWGQGTLVTVSS VL: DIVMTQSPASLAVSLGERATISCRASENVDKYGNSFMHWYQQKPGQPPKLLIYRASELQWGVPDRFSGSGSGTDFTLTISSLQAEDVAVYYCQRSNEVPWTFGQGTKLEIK ?
Result: 1.29

Task: How about antibody C88 (antibody, V domains shown) VH: QVQLVQSGAEVKKPGASVKVSCKASGFNIKDVYMSWVRQAPEQGLEWMGRIDPENGDTKYDPKLQGRVTMTADTSTNTAYMELRSLRSDDTAVYYCARGWEGFAYWGQGTLVTVSS VL: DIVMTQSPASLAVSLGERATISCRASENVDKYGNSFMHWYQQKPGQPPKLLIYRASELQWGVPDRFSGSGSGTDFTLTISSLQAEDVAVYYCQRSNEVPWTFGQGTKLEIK ?
Result: 1.06
